- measurement.target: human liver cathepsin B (Homo sapiens, UniProt P07858)
quantity.name: pIC50
One number for each entry, as −log10 of the molar value.

Give the measured pIC50 for "C=C[C@@H]1C[C@]1(NC(=O)[C@@H]1C[C@@](O)(c2ccc(-c3ccccc3)cc2)CN1C(=O)[C@@H](NC(=O)OC(C)(C)C)C(C)(C)C)C(=O)NS(=O)(=O)C1CC1"
5.70

---

- measurement.target: HCV NS3/4A protease complex, BMS strain (UniProt P27958, species not given/STRAIN_BMS)
- Construct: said of H77 and J4L6S, not expressly of BMS; fused on or other part: A three-lysine solubilising tail at the NS4A C-terminus and purification on Ni-NTA are described for the H77 and J4L6S constructs
- Sequence (P27958 1027-1657, change not shown, one chain of several): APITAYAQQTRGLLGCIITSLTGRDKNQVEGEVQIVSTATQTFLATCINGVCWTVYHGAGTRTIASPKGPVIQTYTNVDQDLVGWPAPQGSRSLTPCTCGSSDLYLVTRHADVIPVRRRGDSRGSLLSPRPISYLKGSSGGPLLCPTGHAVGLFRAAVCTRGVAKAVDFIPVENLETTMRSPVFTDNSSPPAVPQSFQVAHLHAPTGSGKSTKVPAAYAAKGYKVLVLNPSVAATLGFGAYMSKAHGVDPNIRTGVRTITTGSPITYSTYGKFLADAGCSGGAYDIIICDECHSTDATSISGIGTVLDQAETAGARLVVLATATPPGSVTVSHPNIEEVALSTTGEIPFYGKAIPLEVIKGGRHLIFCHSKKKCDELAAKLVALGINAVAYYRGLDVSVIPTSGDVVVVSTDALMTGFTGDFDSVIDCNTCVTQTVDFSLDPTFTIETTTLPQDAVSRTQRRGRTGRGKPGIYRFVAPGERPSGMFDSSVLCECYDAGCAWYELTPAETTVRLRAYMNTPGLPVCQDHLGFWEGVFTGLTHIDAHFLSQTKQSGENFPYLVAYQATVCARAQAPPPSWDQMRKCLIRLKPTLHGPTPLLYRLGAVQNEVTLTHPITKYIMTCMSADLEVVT
- assay.explanation: FRET peptide assay to monitor HCV NS3/4A proteolytic activity (BMS strain)
- Assay type: biochemical, HCV genotype 1a
- condition.set: NS3/4A BMS strain; read-out: Activity Range (IC50)
quantity.name: IC50

Here's what some known entries look like.
C=C[C@@H]1C[C@]1(NC(=O)[C@@H]1C[C@@](O)(c2cccc(CN3CCOCC3)c2)CN1C(=O)[C@@H](NC(=O)OC(C)(C)C)C(C)(C)C)C(=O)NS(=O)(=O)C1CC1 [Compound 19]    100 to 1000 nM
C=C[C@@H]1C[C@]1(NC(=O)[C@@H]1C[C@@H](c2ccccc2)CN1C(=O)[C@@H](NC(=O)OC(C)(C)C)C(C)(C)C)C(=O)NS(=O)(=O)C1CC1 [Compound 1]    100 to 1000 nM
C=C[C@@H]1C[C@]1(NC(=O)[C@@H]1C[C@@](O)(c2ccc(-c3ccccc3)cc2)CN1C(=O)[C@@H](NC(=O)OC(C)(C)C)C(C)(C)C)C(=O)NS(=O)(=O)C1CC1 [Compound 3]    1 to 100 nM
C=C[C@@H]1C[C@]1(NC(=O)[C@@H]1C[C@@](O)(c2ccccc2CN2CCOCC2)CN1C(=O)[C@@H](NC(=O)OC(C)(C)C)C(C)(C)C)C(=O)NS(=O)(=O)C1CC1 [Compound 20]    100 to 1000 nM
C=C[C@@H]1C[C@]1(NC(=O)[C@@H]1C[C@@](O)(c2cccc(OC)c2)CN1C(=O)[C@@H](NC(=O)OC(C)(C)C)C(C)(C)C)C(=O)NS(=O)(=O)C1CC1 [Compound 11]    1 to 100 nM
C=C[C@@H]1C[C@]1(NC(=O)[C@@H]1C[C@@](O)(c2cc(C)ccc2C)CN1C(=O)[C@@H](NC(=O)OC(C)(C)C)C(C)(C)C)C(=O)NS(=O)(=O)C1CC1 [Compound 24]    100 to 1000 nM
C=C[C@@H]1C[C@]1(NC(=O)[C@@H]1C[C@@](O)(c2cccc(OC(C)C)c2)CN1C(=O)[C@@H](NC(=O)OC(C)(C)C)C(C)(C)C)C(=O)NS(=O)(=O)C1CC1 [Compound 15]    100 to 1000 nM
C=C[C@@H]1C[C@]1(NC(=O)[C@@H]1C[C@@](O)(c2cccc(N(C)C)c2)CN1C(=O)[C@@H](NC(=O)OC(C)(C)C)C(C)(C)C)C(=O)NS(=O)(=O)C1CC1 [Compound 16]    100 to 1000 nM

For each listed entry, give its IC50.
1. C=C[C@@H]1C[C@]1(NC(=O)[C@@H]1C[C@@](O)(c2ccc(F)c(C)c2)CN1C(=O)[C@@H](NC(=O)OC(C)(C)C)C(C)(C)C)C(=O)NS(=O)(=O)C1CC1 [Compound 22]
2. C=CC[C@]1(O)C[C@@H](C(=O)N[C@]2(C(=O)NS(=O)(=O)C3CC3)C[C@H]2C=C)N(C(=O)[C@@H](NC(=O)OC(C)(C)C)C(C)(C)C)C1 [Compound 9]

100 to 1000 nM
> 1000 nM
